# System: S. aureus MP-12
# assay_protocol: Broth dilution MIC determination (CLSI), S. aureus MP-12
# Type: cell-based
# cond: Staphylococcus aureus, MP12; strain MP-12, broth dilution
Each entry below carries its recorded MIC.

These recorded examples may help you get a feel for the data.
- chemical_smiles: "CCCN1CC([C@@H]2[C@@H](C)OC(=O)C(C)(C)C(=O)[C@H](C)[C@@H](O[C@@H]3O[C@H](C)C[C@H](N(C)C)[C@H]3O)[C@](C)(OC)C[C@@H](C)CN2C)C1"
  result: "> 32 µg/mL"
- chemical_smiles: "CO[C@]1(C)C[C@@H](C)CN(C)[C@H](C2CN(C(=O)CNC(C)(C)C)C2)COC(=O)C(C)(C)C(=O)[C@H](C)[C@H]1O[C@@H]1O[C@H](C)C[C@H](N(C)C)[C@H]1O"
  result: "4 to 32 µg/mL"
- chemical_smiles: "CO[C@]1(C)C[C@@H](C)CN(C)[C@H](C2CN(CC(=O)N3CCCC3)C2)COC(=O)C(C)(C)C(=O)[C@H](C)[C@H]1O[C@@H]1O[C@H](C)C[C@H](N(C)C)[C@H]1O"
  result: "4 to 32 µg/mL"
- chemical_smiles: "CO[C@]1(C)C[C@@H](C)CN(C)[C@@H](C2CCN(CC(C)C)CC2)COC(=O)C(C)(C)C(=O)[C@H](C)[C@H]1O[C@@H]1O[C@H](C)C[C@H](N(C)C)[C@H]1O"
  result: "4 to 32 µg/mL"
- chemical_smiles: "CO[C@]1(C)C[C@@H](C)CN(C)[C@H](c2ccc(-c3cccc(N)c3)cc2)COC(=O)C(C)(C)C(=O)[C@H](C)[C@H]1O[C@@H]1O[C@H](C)C[C@H](N(C)C)[C@H]1O"
  result: "4 to 32 µg/mL"

Input `CO[C@]1(C)C[C@@H](C)CN[C@H](C2CCN(C(C)C)CC2)COC(=O)C(C)(C)C(=O)[C@H](C)[C@H]1O[C@@H]1O[C@H](C)C[C@H](N(C)C)[C@H]1O` . Output MIC: 4 to 32 µg/mL

Input `CO[C@]1(C)C[C@@H](C)CN(C)[C@H](C2CN(C(=O)CCN(C)C)C2)COC(=O)C(C)(C)C(=O)[C@H](C)[C@H]1O[C@@H]1O[C@H](C)C[C@H](N(C)C)[C@H]1O` . Output MIC: 4 to 32 µg/mL

Input `CO[C@]1(C)C[C@@H](C)CN(C)[C@H](C2CN(Cc3ccccn3)C2)COC(=O)C(C)(C)C(=O)[C@H](C)[C@H]1O[C@@H]1O[C@H](C)C[C@H](N(C)C)[C@H]1O` . Output MIC: 4 to 32 µg/mL

Input `CO[C@]1(C)C[C@@H](C)CN(C)[C@@H](C2(CCN(C)CC3CC3)CC2)COC(=O)C(C)(C)C(=O)[C@H](C)[C@H]1O[C@@H]1O[C@H](C)C[C@H](N(C)C)[C@H]1O` . Output MIC: > 32 µg/mL

Input `CO[C@]1(C)C[C@@H](C)CN(C)[C@@H](C2CN(C(=O)CN(C)C)C2)COC(=O)C(C)(C)C(=O)[C@H](C)[C@H]1O[C@@H]1O[C@H](C)C[C@H](N(C)C)[C@H]1O` . Output MIC: 4 to 32 µg/mL
